Test: Rapamycin trough blood concentrations
Format: in vivo, human
Settings: human, whole blood, oral, 2 mg
readout.label: concentration at 14 days (ng/mL)
Express it in ng/mL; write the number only.

I would be grateful if you could share the reported concentration at 14 days for CO[C@H]1C[C@@H]2CC[C@@H](C)[C@@](O)(O2)C(=O)C(=O)N2CCCC[C@H]2C(=O)O[C@H]([C@H](C)C[C@@H]2CC[C@@H](O)[C@H](OC)C2)CC(=O)[C@H](C)/C=C(\C)[C@@H](O)[C@@H](OC)C(=O)[C@H](C)C[C@H](C)/C=C/C=C/C=C/1C .
172
